Data origin, for the record: the supplement of paper PMC10567573

Entries and their protein stability index values follow.
B1: ATL3 (parent)
chain: QELEEEIKELYENFCKHNGSKNVF

# Variants of: B1
# procedureDetails: protein stability index of a GFP-peptide fusion (GPS, HEK-293T) (PSI 1-6); higher = more stable;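 also: lentivirally expressed fusions sorted by FACS into six bins by GFP to DsRed ratio, PSI derived from sequencing read proportions per bin multiplied by bin number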
# recordedConditions: c terminus: a fixed tail appended
recordedEndpoint: protein stability index

[[record]]
variantname = "E5G"
resultvalue = 3.25

[[record]]
variantname = "N18Q"
resultvalue = 2.68

[[record]]
variantname = "E9A"
resultvalue = 2.37

[[record]]
variantname = "K8P"
resultvalue = 4.37

[[record]]
variantname = "E2Q"
resultvalue = 2.52

[[record]]
variantname = "L10N"
resultvalue = 4.05

[[record]]
variantname = "E4Q"
resultvalue = 1.56

[[record]]
variantname = "E6Q"
resultvalue = 3.18

[[record]]
variantname = "L3V"
resultvalue = 2.28

[[record]]
variantname = "C15D"
resultvalue = 4.08

[[record]]
variantname = "E5K"
resultvalue = 2.21

[[record]]
variantname = "F24G"
resultvalue = 2.73

[[record]]
variantname = "V23L"
resultvalue = 2.68

[[record]]
variantname = "L3S"
resultvalue = 4.62

[[record]]
variantname = "K16G"
resultvalue = 3.51

[[record]]
variantname = "S20E"
resultvalue = 2.04

[[record]]
variantname = "E5S"
resultvalue = 2.17

[[record]]
variantname = "N18S"
resultvalue = 2.42

[[record]]
variantname = "G19P"
resultvalue = 3.03

[[record]]
variantname = "L3I"
resultvalue = 3.14

[[record]]
variantname = "F24H"
resultvalue = 3.37

[[record]]
variantname = "I7M"
resultvalue = 3.8

[[record]]
variantname = "N18C"
resultvalue = 2.75

[[record]]
variantname = "S20R"
resultvalue = 3.77

[[record]]
variantname = "Y11E"
resultvalue = 4.54

[[record]]
variantname = "F24P"
resultvalue = 2.74

[[record]]
variantname = "E5C"
resultvalue = 2.33

[[record]]
variantname = "S20W"
resultvalue = 2.16

[[record]]
variantname = "L3A"
resultvalue = 4.15

[[record]]
variantname = "C15E"
resultvalue = 3.86

[[record]]
variantname = "E12N"
resultvalue = 2.53

